experimentSummary: logP determination by HPLC on a reversed-phase column (C18), EEC Directive 79/831 Annex V.A8
Assay type: physicochemical
setupConditions: HPLC on reversed-phase column (C18), acetonitrile/water with formic acid, EEC Directive 79/831 Annex V.A8
Classify: yes when logP is strictly less than 4; no when logP is not.

The examples below pair each entry with its known result.
{"columns": ["compound", "group"],
 "data": [
  ["CSC1CCC1NC(=O)c1cc(-c2cnn(-c3c(C(F)(F)F)c(C(F)(F)C(F)(F)F)nn3C)c2)ccc1Cl (centres unmarked)", "no"],
  ["Cn1nc(C(F)(F)F)c(C(F)(F)F)c1-n1cc(-c2ccc(Cl)c(C(=O)NCC(F)F)c2)cn1", "yes"],
  ["Cc1ccc(-c2cnn(-c3c(C(F)(F)F)c(C(F)(F)C(F)(F)F)nn3C)c2)cc1C(=O)NC1CC1", "yes"]
]}

// query Determine if Cc1ccc(-c2cnn(-c3c(C(F)(F)F)c(C(F)(F)C(F)(F)F)nn3C)c2)cc1C(=O)NC1(C#N)CC1 shows logP strictly lower than 4.
// result yes

// query Determine if CC#CC(C)NC(=O)c1cc(-c2cnn(-c3c(C(F)(F)F)c(C(F)(F)C(F)(F)F)nn3C)c2)ccc1Cl (centres unmarked) shows logP strictly lower than 4.
// result no
